# System: Inhibin beta A chain (activin A)
# protocol: INHBA (activin A) binders on microarrays, primary screen, biochemical, small-molecule microarray, 635 nm fluorescence scan (AID 1107);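 further: mouse activin A protein probed at 4.33 µg/mL on printed slides; score merges bound-protein fluorescence near 667 nm with spot signal-to-noise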
# measurement_parameters: small-molecule microarray binding, higher = more signal
Assign rule met whenever composite z-score does not fall below 0.9; assign rule not met whenever it does.

{"columns": ["compound", "cat"],
 "data": [
  ["O=C1O[C@@H](c2ccccc2)[C@@H](c2ccccc2)N2[C@@H](c3ccc(OCCO)cc3)[C@]3(C(=O)Nc4ccccc43)[C@@H](C(=O)O)[C@H]12", "rule not met"],
  ["[N-]=[N+]=NCc1ccccc1[C@H]1OC(c2ccc(OCCCO)cc2)=N[C@@]1(CCS(=O)(=O)c1ccccc1)C(=O)NCC(O)CO (stereo partly drawn)", "rule not met"],
  ["CC(c1ccccc1)C(O)C1C=CC2C(=O)N(c3ccccc3)C(=O)C2N1Nc1ccc([N+](=O)[O-])cc1 (stereo not drawn)", "rule not met"],
  ["CO[C@H]1O[C@H](CO)[C@@H](OC(=O)Nc2ccc3c(c2)OCO3)[C@H](OC(=O)c2cc3ccccc3[nH]2)[C@H]1OC(=O)c1cc2ccccc2[nH]1", "rule met"],
  ["C=CCOC(=O)[C@H]1[C@@H]2C(=O)O[C@@H](c3ccccc3)[C@@H](c3ccccc3)N2[C@@H](c2ccc(OCCOC(=O)[C@@H]3C[C@@H]4C(=O)N5CCC[C@H]5C(=O)N4[C@@H]3c3ccc(O)cc3)cc2)[C@]12C(=O)Nc1ccc(I)cc12", "rule not met"],
  ["CN(C)CCCCNC(=O)[C@@H]1C[C@@H]2C(=O)N[C@@H](Cc3ccccc3)C(=O)N2[C@@H]1c1cccc(OCCO)c1", "rule not met"],
  ["COc1cc(OC)c(C(O)C2C=CC3C(=O)N(c4ccccc4)C(=O)C3N2Nc2ccccc2)cc1Br (stereo not drawn)", "rule not met"],
  ["Cc1ccc(S[C@]2(C(=O)O)CC(=O)N(Cc3ccccc3Cl)[C@@H]2c2ccc(CO)cc2I)cc1", "rule not met"],
  ["O=C1C2C=CC(C(O)c3ccccc3)N(Nc3ccccc3F)C2C(=O)N1c1ccccc1 (stereo not drawn)", "rule not met"],
  ["C=CCC(OC(C)=O)[C@@H]1[C@@H](N(Cc2cc3ccccc3o2)C(=O)Cc2ccc(F)cc2)c2cc(OCCCO)ccc2N1C(=O)c1ccc2ccccc2c1 (stereo partly drawn)", "rule met"],
  ["C=C(/C(=C/C[C@@H](OC(C)=O)c1cccc(OCCO)c1)c1cc(C(=O)OC)ccc1OC)C(C)C", "rule not met"],
  ["C=CCN1C(=O)[C@@]2(O[C@@H](CCn3cc([C@H](O)c4ccccc4)nn3)[C@H]([Si](C)(C)c3ccc(OC)cc3)[C@H]2C)c2cc(N3CCC3=O)ccc21", "rule not met"],
  ["C=C(C)c1cc2c(c(CCCCCC)n1)[Si](C(C)C)(C(C)C)OC2", "rule not met"],
  ["CCOC(=O)C1=CC[C@@H](c2ccc(OCc3ccccc3)c(OC)c2)N(S(=O)(=O)c2ccc(C)cc2)[C@H]1c1ccc(SC)cc1", "rule met"],
  ["COc1cccc(/C=C/C=O)c1", "rule not met"],
  ["COCCOC(=O)N1C(=O)[C@@]2(c3cc(C#CC4=CCCCC4)ccc31)[C@H](c1ccc(OCCO)cc1)N1[C@H](c3ccccc3)[C@H](c3ccccc3)OC(=O)[C@H]1[C@@H]2C(=O)N1CCN(c2ncccn2)CC1", "rule not met"],
  ["CC(C)N1CC=CC23O[C@@H]4C=CCOC(=O)[C@@H]4[C@H]2C(=O)N(CCCO)[C@@H]3C1=O (stereo partly drawn)", "rule met"],
  ["O=C1NC(=O)C2C1C=CC(C(O)c1ccco1)N2Nc1ccccn1 (stereo not drawn)", "rule met"],
  ["O=C1O[C@H](c2ccccc2)[C@H](c2ccccc2)N2[C@H]1[C@@H](C(=O)NC[C@H](O)c1ccccc1)[C@]1(C(=O)Nc3ccc(C#CCCO)cc31)[C@H]2c1ccc(OCCO)cc1", "rule not met"],
  ["CCOC(=O)C1=CC[C@@H](c2cccc(Cl)c2)N(S(=O)(=O)c2ccc(C)cc2)C1", "rule not met"]
]}

---

# protocol: binders from COS7 lysate, DM2A8 probe, primary screen, torsin A project, cell lysate, small-molecule microarray, fluorescence 635/667 (AID 1065)
# measurement_parameters: higher = more signal, COS7 lysate expressing mutant human TOR1A
quantity: composite z-score

{"columns": ["compound", "quantity", "quantitative_readout"],
 "data": [
  ["COCCOC(=O)N1C(=O)[C@@]2(c3cc(C#CCNC(N)=O)ccc31)[C@H](C(=O)N1CCc3cc(OC)c(OC)cc3C1)[C@H]1C(=O)O[C@H](c3ccccc3)[C@H](c3ccccc3)N1[C@@H]2c1ccccc1OCCO", "composite z-score", 1.05],
  ["Cn1cccc1C(O)C1C=CC2C(=O)NC(=O)C2N1Nc1ccc(Cl)cc1Cl (configuration not stated)", "composite z-score", 0.263],
  ["COCCOC(=O)N1C(=O)[C@@]2(c3cc(C#CC4=CCCCC4)ccc31)[C@H](c1ccc(O)cc1)N1[C@H](c3ccccc3)[C@H](c3ccccc3)OC(=O)[C@H]1[C@@H]2C(=O)N1CCN(c2ncccn2)CC1", "composite z-score", -0.0653],
  ["CCCCO[C@H]1C[C@H]2C(I)=C[C@@H]1C(=O)[C@]21CO1", "composite z-score", 0.823],
  ["COCC1=C2[C@@H](CCc3ccccc3)OB(O)C[C@@H]2[C@@H]2C(=O)C=CC(=O)[C@@H]2C1", "composite z-score", 0.42],
  ["CCOC(=O)c1ccc(NC(=O)O[C@H]2[C@H](OC(=O)Nc3ccc4c(c3)OCO4)[C@H](OC(=O)Nc3ccc4c(c3)OCO4)[C@@H](OC)O[C@@H]2CO)cc1", "composite z-score", 0.807],
  ["COC(=O)[C@@]1(Cc2ccc(OC)cc2)[C@H]2c3cc(C(=O)N4CCCC4)n(Cc4c(-c5ccccc5)noc4C)c3C[C@H]2CN1C(=O)c1ccccc1", "composite z-score", 0.245],
  ["CN(C)C(=O)[C@]1(CCS(=O)(=O)c2ccccc2)N=C(c2ccc(OCCCO)cc2)O[C@@H]1c1ccccc1N=[N+]=[N-]", "composite z-score", 1.13],
  ["C=CCOC(=O)[C@H]1[C@@H]2C(=O)O[C@@H](c3ccccc3)[C@@H](c3ccccc3)N2[C@@H](c2ccc(OCCOC(=O)[C@@H]3C[C@@H]4C(=O)N[C@@H](CCCCN(C)C)C(=O)N4[C@@H]3c3ccc(O)cc3)cc2)[C@]12C(=O)Nc1ccccc12", "composite z-score", 0.639],
  ["Cc1ccc(S[C@]2(C(=O)NCC(F)(F)F)CC(=O)N(Cc3ccccc3C(F)(F)F)[C@@H]2c2ccc(CO)cc2I)cc1", "composite z-score", -0.893],
  ["O=C1c2ccccc2[C@](Cc2ccccc2I)(C(=O)NCC(F)(F)F)[C@H](c2ccc(CO)cc2)N1C1CCCCC1", "composite z-score", -0.089],
  ["C[C@]1(C(=O)NC2CC2)c2ccccc2C(=O)N(Cc2ccccc2)[C@H]1c1ccc(CO)cc1", "composite z-score", -0.729]
]}

---

# protocol: E. coli acrAB mutant growth effects, primary screen, E. coli filamentation inducers, strain DRC39, OD650, 48 h (AID 1179);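 further: screen aims at cell division blockers that make cells filament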
# measurement_parameters: E. coli DRC39 delta-acrAB growth, higher = more signal, called active from +8 up or from −8 down
quantity: z-score

{"columns": ["molecule", "quantitative_readout"],
 "data": [
  ["COc1cc2c(cc1O)C(C)N(Cc1ccc([N+](=O)[O-])o1)CC2 (centres undefined)", -0.679],
  ["O=C1N(Cc2ccccc2)c2ccccc2[C@@H]2OC(c3ccc(OCCCO)cc3)=N[C@]12Cc1ccccc1", 0.259],
  ["COc1ccccc1CN1C(=O)c2ccccc2[C@](Cc2ccccc2I)(C(=O)NCC(F)(F)F)[C@@H]1c1ccc(CO)cc1", -0.613],
  ["CCOC(=O)C[C@H]1[C@H](OC(=O)Cc2ccc3c(c2)OCO3)[C@@H](NC(=O)CC(C)C)c2cc(OCCCO)ccc2N1C(=O)Cc1ccc(OC)cc1", 0.629],
  ["COCCOC(=O)N1C(=O)[C@@]2(c3cc(C#Cc4ccc(OC)cc4)ccc31)[C@H](C(=O)Nc1nc3ccccc3s1)[C@H]1C(=O)O[C@H](c3ccccc3)[C@H](c3ccccc3)N1[C@@H]2c1ccc(O)cc1", -0.591],
  ["CCOC(=O)C[C@H]1[C@H](OC(=O)Cc2ccc3c(c2)OCO3)[C@@H](NC(=O)Cc2ccc(OC)cc2)c2cc(OCCCO)ccc2N1C(=O)c1ccc2ccccc2n1", 2.12],
  ["COc1ccc([Si](C)(C)[C@@H]2[C@@H](CC(=O)N(CCO)Cc3ccccc3)O[C@]3(C(=O)N(Cc4cccc(N5CCOC5=O)c4)c4ccccc43)[C@H]2C)cc1", -0.463],
  ["CCOC(=O)C[C@H]1[C@H](OC(=O)c2ccccc2-c2ccccc2)[C@@H](NC(=O)c2ccc(-c3ccccc3)cc2)c2cc(OCCCO)ccc2N1C(=O)c1ccc2ccccc2n1", -0.0565],
  ["O=C1O[C@@H](c2ccccc2)[C@@H](c2ccccc2)N2[C@@H](c3ccc(O)cc3)[C@]3(C(=O)Nc4ccc(C#CC5(O)CCCCCC5)cc43)[C@@H](C(=O)NC[C@H](O)c3ccccc3)[C@H]12", -0.938]
]}
